Assay: NCI Yeast Anticancer Drug Screen. Data for the sgs1 mgt1 strain (AID 161);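 note: 0% = growth of cultures given vehicle only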
Conditions: S. cerevisiae sgs1 mgt1 strain, at 50.0 µM, stronger effect = higher value
Protocol: Growth inhibition of yeast strains with defined genetic alterations is measured as a screen for potential anti-cancer activity. Selected strains with alterations in DNA damage repair or cell cycle control were exposed to compounds and growth inhibition was measured relative to vehicle treated controls. The strain used in this assay is sgs1 mgt1
About 79,000 compounds went through this panel and 15% of them were active in at least one assay; those are over-represented in the sample as a whole.
Record form. Attribute: growth inhibition. Fill in for each entry.
All answers are understood in %, so give the number only.

Query: Give the reported value of growth inhibition for this record: CN1CCCN(C(c2ccccc2)c2ccc(Cl)cc2)CC1 (stereo not drawn)
Result: 1.95

Query: Item Cc1ccc(O)c(N)c1 : provide growth inhibition
Result: -20.3

Query: Name the recorded growth inhibition of the item Cc1ccccc1CC(N)C(=O)O (stereo not drawn) in your answer.
Result: 2.7

Query: # return recorded growth inhibition for entry NNC(=O)CCCCl
Result: -11.5

Query: Indicate the recorded growth inhibition value for this compound: C[n+]1cc2cc3c(cc2c2ccccc21)OCO3
Result: 30

Query: Quick one: give measured growth inhibition for c1ccc(Nc2ccccn2)nc1
Result: -21

Query: Using known records, supply growth inhibition for O=C(Nc1ccccc1)c1ccco1
Result: 13.8

Query: Provide measured growth inhibition value, entry: Cc1ccc(S(N)(=O)=O)cc1Cl
Result: 13.2
